The reported numbers originate from paper PMC4081462.

# System: tubulin
# Method: Inhibition of [3H]halichondrin B binding to tubulin
# Parameters: species or system bovine
# Cond: inhibitor 20 µM; 10 µM tubulin, 10 µM radiolabeled ligand
Measurement name: Inhibition of binding of [3H]halichondrin B, % inhibition ± SD
Value and unit, in that order.

Worked set:
compound="CN[C@H](C(=O)N[C@H](C(=O)N(C)[C@H](/C=C(\\C)C(=O)O)C(C)C)C(C)(C)C)C(C)(C)c1ccccc1 [Compound 2, taltobulin]" value_observed="63 ± 1%"
compound="CN[C@H](C(=O)N[C@H](C(=O)N(C)c1cccc(C(=O)O)c1)C(C)C)C(C)(C)c1ccccc1.O=C(O)C(F)(F)F [Compound 3]" value_observed="0 ± 0%"
compound="CN[C@H](C(=O)N[C@H](C(=O)N(C)[C@H](/C=C(\\C)C(=O)O)C(C)C)C(C)(C)C)C(C)(C)c1cn(C)c2ccccc12 [Compound 1, hemiasterlin]" value_observed="92 ± 2%"
compound="CN[C@H](C(=O)N[C@H](C(=O)N(C)c1cc(C(=O)O)ccc1OC)C(C)C)C(C)(C)c1ccccc1.O=C(O)C(F)(F)F [Compound 5]" value_observed="0 ± 0%"

# ---- query compound ----
For record CN[C@H](C(=O)N[C@H](C(=O)N(C)c1cc(C(=O)O)ccc1C)C(C)C)C(C)(C)c1ccccc1.O=C(O)C(F)(F)F [Compound 4] the listed Inhibition of binding of [3H]halichondrin B, % inhibition ± SD is 3 ± 1%

###

# Tested on: SEM cells
# Method: Antiproliferative assay
# Type: cell-based
# Cond: Homo sapiens, B-cell, 72 h, read-out: In vitro cytotoxic activity IC50, SEM
Measurement name: IC50

For record CN[C@H](C(=O)N[C@H](C(=O)N(C)c1cc(C(=O)O)ccc1C)C(C)C)C(C)(C)c1ccccc1.O=C(O)C(F)(F)F the listed IC50 is > 10 µM

For record CN[C@H](C(=O)N[C@H](C(=O)N(C)[C@H](c1nc(C(=O)O)co1)C(C)C)C(C)C)C(C)(C)c1ccccc1 the listed IC50 is > 10 µM

For record CN[C@H](C(=O)N[C@H](C(=O)N(C)c1cccc(C(=O)O)c1)C(C)C)C(C)(C)c1ccccc1.O=C(O)C(F)(F)F the listed IC50 is > 10 µM

For record CN[C@H](C(=O)N[C@H](C(=O)N(C)c1cc(C(=O)O)ccc1OC)C(C)C)C(C)(C)c1ccccc1.O=C(O)C(F)(F)F the listed IC50 is > 10 µM

For record CN[C@H](C(=O)N[C@H](C(=O)N(C)[C@H](/C=C(\C)C(=O)O)C(C)C)C(C)(C)C)C(C)(C)c1ccccc1 the listed IC50 is 0.0001 µM

###

# Test system: tubulin
# Method: Inhibition of [3H]dolastatin 10 binding to tubulin
# Set-up: species or system bovine
# Cond: inhibitor 20 µM; 10 µM tubulin, 10 µM radiolabeled ligand
Here the recorded Inhibition of binding of [3H]dolastatin 10, % inhibition ± SD is given for each entry.
Value and unit, in that order.

compound=CN[C@H](C(=O)N[C@H](C(=O)N(C)c1cccc(C(=O)O)c1)C(C)C)C(C)(C)c1ccccc1.O=C(O)C(F)(F)F tested_on=tubulin value_observed="7 ± 3%"

# ---- query molecule ----
The molecule CN[C@H](C(=O)N[C@H](C(=O)N(C)[C@H](/C=C(\C)C(=O)O)C(C)C)C(C)(C)C)C(C)(C)c1cn(C)c2ccccc12 , when measured on tubulin, yielded Inhibition of binding of [3H]dolastatin 10, % inhibition ± SD of 89 ± 1%

###

# System: HT29
# Method: Antiproliferative assay
# Assay type: cell-based
# Cond: Homo sapiens, HT-29, 72 h, read-out: In vitro cytotoxic activity IC50, HT29
Here the recorded IC50 is given for each entry.
Provide only the numeric value, understood in µM.

Worked set:
compound=CN[C@H](C(=O)N[C@H](C(=O)N(C)c1cccc(C(=O)O)c1)C(C)C)C(C)(C)c1ccccc1.O=C(O)C(F)(F)F measurement_name=IC50 value_observed=1.9
compound=CN[C@H](C(=O)N[C@H](C(=O)N(C)c1cc(C(=O)O)ccc1C)C(C)C)C(C)(C)c1ccccc1.O=C(O)C(F)(F)F measurement_name=IC50 value_observed=2.7

# ---- query molecule ----
For record CN[C@H](C(=O)N[C@H](C(=O)N(C)[C@H](/C=C(\C)C(=O)O)C(C)C)C(C)(C)C)C(C)(C)c1ccccc1 the listed IC50 is 0.0003

###

# System: tubulin
# Method: Inhibition of [3H]vinblastine binding to tubulin
# Set-up: species or system bovine
# Cond: inhibitor 20 µM; 10 µM tubulin, 10 µM radiolabeled ligand
Here the recorded Inhibition of binding of [3H]vinblastine, % inhibition ± SD is given for each entry.
Provide only the numeric value, understood in %.

compound=CN[C@H](C(=O)N[C@H](C(=O)N(C)[C@H](/C=C(\C)C(=O)O)C(C)C)C(C)(C)C)C(C)(C)c1ccccc1 value_unit=% value_observed=60
compound=CN[C@H](C(=O)N[C@H](C(=O)N(C)c1cc(C(=O)O)ccc1C)C(C)C)C(C)(C)c1ccccc1.O=C(O)C(F)(F)F value_unit=% value_observed=9
compound=CN[C@H](C(=O)N[C@H](C(=O)N(C)c1cccc(C(=O)O)c1)C(C)C)C(C)(C)c1ccccc1.O=C(O)C(F)(F)F value_unit=% value_observed=2
compound=CN[C@H](C(=O)N[C@H](C(=O)N(C)[C@H](/C=C(\C)C(=O)O)C(C)C)C(C)(C)C)C(C)(C)c1cn(C)c2ccccc12 value_unit=% value_observed=66

For record CN[C@H](C(=O)N[C@H](C(=O)N(C)c1cc(C(=O)O)ccc1OC)C(C)C)C(C)(C)c1ccccc1.O=C(O)C(F)(F)F the listed Inhibition of binding of [3H]vinblastine, % inhibition ± SD is 0

###

# Test system: tubulin
# Method: Inhibition of [3H]dolastatin 10 binding to tubulin
# Design: species or system bovine
# Cond: inhibitor 20 µM; 10 µM tubulin, 10 µM radiolabeled ligand
Measurement name: Inhibition of binding of [3H]dolastatin 10, % inhibition ± SD (%)
Provide only the numeric value, understood in %.

Worked set:
compound=CN[C@H](C(=O)N[C@H](C(=O)N(C)c1cc(C(=O)O)ccc1C)C(C)C)C(C)(C)c1ccccc1.O=C(O)C(F)(F)F tested_on=tubulin value_unit=% value_observed=0
compound=CN[C@H](C(=O)N[C@H](C(=O)N(C)[C@H](/C=C(\C)C(=O)O)C(C)C)C(C)(C)C)C(C)(C)c1ccccc1 tested_on=tubulin value_unit=% value_observed=30

# ---- query compound ----
For record CN[C@H](C(=O)N[C@H](C(=O)N(C)c1cc(C(=O)O)ccc1OC)C(C)C)C(C)(C)c1ccccc1.O=C(O)C(F)(F)F the listed Inhibition of binding of [3H]dolastatin 10, % inhibition ± SD is 8
